Cited source: the kinase profiling compilation of Christmann-Franck et al. (2016)

target: UniProt:O96013; assay: KINOMEscan competition binding; conditions: compound 10.0 µM
Sequence (O96013 whole entry, looked up): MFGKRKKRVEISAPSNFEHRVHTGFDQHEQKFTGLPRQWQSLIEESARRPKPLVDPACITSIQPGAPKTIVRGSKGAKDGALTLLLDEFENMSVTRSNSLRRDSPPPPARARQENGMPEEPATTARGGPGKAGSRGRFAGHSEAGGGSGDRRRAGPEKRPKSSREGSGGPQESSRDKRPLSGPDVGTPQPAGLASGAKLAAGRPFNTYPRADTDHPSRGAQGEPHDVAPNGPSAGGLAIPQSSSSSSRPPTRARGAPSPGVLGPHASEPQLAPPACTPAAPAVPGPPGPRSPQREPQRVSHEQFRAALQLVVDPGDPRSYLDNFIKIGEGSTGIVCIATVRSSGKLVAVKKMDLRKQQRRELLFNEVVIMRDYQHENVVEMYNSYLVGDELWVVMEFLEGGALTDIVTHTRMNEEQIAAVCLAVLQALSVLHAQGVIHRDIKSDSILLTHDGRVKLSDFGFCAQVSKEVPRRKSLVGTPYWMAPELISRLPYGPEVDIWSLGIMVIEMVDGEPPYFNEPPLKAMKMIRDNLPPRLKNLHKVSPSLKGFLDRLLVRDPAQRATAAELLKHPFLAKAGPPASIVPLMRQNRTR
Overview of reported kinase still bound, per cent of control across a group of compounds:
Give the value in % but do not write % after it.

Given the compound COc1cc(N2CCN(C)CC2)ccc1Nc1ncc2c(n1)Nc1ccccc1NC2=O , write its reported kinase still bound, per cent of control.
94

Please indicate kinase still bound, per cent of control recorded for COc1cc(N2CCN(C)CC2)ccc1Nc1ncc2c(n1)N(C)c1sccc1C(=O)N2C
84

Identify measured kinase still bound, per cent of control associated with CN1CCN(c2ccc(C(=O)Nc3ncc4c(n3)N(C)c3ccccc3C(=O)N4C)cc2)CC1
100

Report kinase still bound, per cent of control, nothing else, for this compound: CN1C(=O)c2ccccc2N(C)c2nc(Nc3ccc(N4CCC(O)CC4)cc3)ncc21
97

====

biological target: UniProtKB O95835; test: KINOMEscan competition binding; conditions: compound 10.0 µM
Sequence (O95835 whole entry, looked up): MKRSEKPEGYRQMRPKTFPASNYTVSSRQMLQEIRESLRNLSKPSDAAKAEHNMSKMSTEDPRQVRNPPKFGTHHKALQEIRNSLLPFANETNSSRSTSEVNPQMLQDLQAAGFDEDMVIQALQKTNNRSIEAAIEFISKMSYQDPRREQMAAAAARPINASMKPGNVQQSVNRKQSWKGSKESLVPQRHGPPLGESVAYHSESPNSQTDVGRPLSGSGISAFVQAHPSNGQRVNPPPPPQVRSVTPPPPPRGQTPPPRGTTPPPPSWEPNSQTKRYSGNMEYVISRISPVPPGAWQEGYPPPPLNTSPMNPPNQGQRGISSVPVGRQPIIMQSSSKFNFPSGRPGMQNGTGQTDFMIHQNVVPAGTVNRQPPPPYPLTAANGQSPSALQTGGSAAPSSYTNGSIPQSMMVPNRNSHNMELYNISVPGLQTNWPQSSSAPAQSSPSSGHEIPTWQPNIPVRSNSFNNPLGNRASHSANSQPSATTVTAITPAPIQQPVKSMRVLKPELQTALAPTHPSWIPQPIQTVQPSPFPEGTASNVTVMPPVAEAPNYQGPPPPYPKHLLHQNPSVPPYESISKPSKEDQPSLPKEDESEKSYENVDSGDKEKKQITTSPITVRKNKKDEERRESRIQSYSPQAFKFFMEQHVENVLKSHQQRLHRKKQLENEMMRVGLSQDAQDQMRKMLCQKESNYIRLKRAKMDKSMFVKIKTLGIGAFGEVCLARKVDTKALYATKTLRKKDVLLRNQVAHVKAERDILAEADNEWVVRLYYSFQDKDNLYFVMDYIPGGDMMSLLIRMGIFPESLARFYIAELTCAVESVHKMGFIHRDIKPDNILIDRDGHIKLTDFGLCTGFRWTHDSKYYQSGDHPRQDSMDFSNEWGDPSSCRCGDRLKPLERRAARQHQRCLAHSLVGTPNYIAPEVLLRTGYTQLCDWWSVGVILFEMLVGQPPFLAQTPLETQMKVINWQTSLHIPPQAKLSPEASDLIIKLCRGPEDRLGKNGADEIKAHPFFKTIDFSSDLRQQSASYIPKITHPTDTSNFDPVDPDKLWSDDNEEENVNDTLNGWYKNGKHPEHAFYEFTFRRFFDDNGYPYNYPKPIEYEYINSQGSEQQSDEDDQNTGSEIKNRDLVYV
Reported kinase still bound, per cent of control is given for each of the following molecules.
# value in %; strip the unit string

Read the entry COc1cc(N2CCN(C)CC2)ccc1Nc1ncc2c(n1)N(C)c1ccccc1N(C)C2=O and write its reported kinase still bound, per cent of control.
94

For the molecule CN1C(=O)c2ccccc2N(C)c2nc(NS(=O)(=O)c3ccc(N)cc3)ncc21 , give its reported kinase still bound, per cent of control.
74

Look up and state reported kinase still bound, per cent of control for COc1cc(N2CCC(O)CC2)ccc1Nc1ncc2c(n1)N1CCc3cccc(c31)C(=O)N2C
100

Please look at this molecule and report its kinase still bound, per cent of control: CN1C(=O)c2ccccc2N(C)c2nc(Nc3ccc(N4CCC(O)CC4)cc3)ncc21
92

Annotate the molecule O=C1NC(=O)C(=Cc2ccc(-c3ccc([N+](=O)[O-])cc3)o2)C(=O)N1 with its measured kinase still bound, per cent of control.
0

====

Reported kinase still bound, per cent of control by item:
molecular target: CAMK2G (human) (UniProt Q13555); test: KINOMEscan competition binding; conditions: compound 10.0 µM
Sequence (Q13555 whole entry, looked up): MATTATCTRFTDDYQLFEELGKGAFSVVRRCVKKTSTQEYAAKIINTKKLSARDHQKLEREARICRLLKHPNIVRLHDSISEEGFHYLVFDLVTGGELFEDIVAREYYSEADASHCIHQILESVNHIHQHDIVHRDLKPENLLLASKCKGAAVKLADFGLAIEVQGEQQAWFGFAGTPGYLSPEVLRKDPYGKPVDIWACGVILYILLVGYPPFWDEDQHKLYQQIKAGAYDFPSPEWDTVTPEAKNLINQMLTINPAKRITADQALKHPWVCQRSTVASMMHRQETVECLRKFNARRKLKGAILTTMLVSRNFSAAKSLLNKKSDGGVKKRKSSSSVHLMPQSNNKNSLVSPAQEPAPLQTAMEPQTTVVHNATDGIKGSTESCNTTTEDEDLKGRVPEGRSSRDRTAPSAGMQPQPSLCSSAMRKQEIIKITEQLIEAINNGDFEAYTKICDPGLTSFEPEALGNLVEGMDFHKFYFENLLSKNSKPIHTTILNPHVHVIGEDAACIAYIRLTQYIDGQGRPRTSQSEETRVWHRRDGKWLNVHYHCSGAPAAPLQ

# annotated cases, reported kinase still bound, per cent of control shown
COMPOUND: COc1cc(N2CCN(C)CC2)ccc1Nc1ncc2c(n1)N(C)c1ccccc1C(=O)N2C
TEST_READOUT: kinase still bound, per cent of control
READING: 31%
//
COMPOUND: COc1cc(N2CCC(O)CC2)ccc1Nc1ncc2c(n1)N1CCc3cccc(c31)C(=O)N2C
TEST_READOUT: kinase still bound, per cent of control
READING: 80%

Fill in kinase still bound, per cent of control for NS(=O)(=O)c1ccc(-c2ccc(/C=C3\SC(=S)N(CC(=O)O)C3=O)o2)cc1 tested with CAMK2G (human) (UniProt Q13555).
33%

Enter recorded kinase still bound, per cent of control with CAMK2G (human) (UniProt Q13555) for Nc1cnc(/C=C/c2ccc(-c3ccc(S(N)(=O)=O)cc3)o2)cn1 here.
34%

# assay system CAMK2G (human) (UniProt Q13555): give kinase still bound, per cent of control of COc1cc(N2CCN(C)CC2)ccc1Nc1ncc2c(n1)N(C(C)C)c1ccccc1C(=O)N2
25%

Please respond with reported kinase still bound, per cent of control (system CAMK2G (human) (UniProt Q13555)) for CCN1C(=O)CC(c2ccccc2)N(C2CCCC2)c2nc(Nc3ccc(C(=O)NC4CCN(C)CC4)cc3OC)ncc21 (stereo not drawn) .
26%

Report kinase still bound, per cent of control from CAMK2G (human) (UniProt Q13555) testing of O=C1NC(=S)S/C1=C\c1ccc(-c2cncc3ccccc23)o1
32%

Write kinase still bound, per cent of control of COc1cc(N2CCN(C)CC2)ccc1Nc1ncc2c(n1)N(C)c1ccccc1N(C)C2=O ; system used: CAMK2G (human) (UniProt Q13555)
95%
